experiment: binders of r(CAG) RNA repeats, primary screen, biochemical, fluorescence (AID 651821); conditions: r(CAG) RNA repeat, TO-PRO-1 dye displacement fluorescence; at 3 µM; active compounds read high;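 further: 0% = DMSO alone and 100% = 100 µM mitoxantrone as full dye displacement; higher means more dye released from RNA so lower well fluorescence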
Screen size: about 370,000 compounds; about 4,700 (1.3%) were called active. This excerpt belongs to a sample that is enriched for actives.
endpoint_name: inhibition (%)
Numbers only; they are read as %.

**Q:** What does the data say about its inhibition? Entry: COC(=O)[C@H](C(C)C)N(CCc1cn(Cc2ccccc2)nn1)S(=O)(=O)c1ccc(F)cc1Br
**A:** 3.36

**Q:** And then COC(=O)c1c(-c2ccc(OC)cc2)c2c(c3c4ccccc4n(S(=O)(=O)c4ccc(C)cc4)c13)C(=O)N(C)C2 , what is it?
**A:** 14.9

**Q:** Same question, CCOC(=O)N1CCN(C(=O)C[C@H]2C[C@@]3(C(=O)OC)C(=C[C@H](C(C)(C)C)O[C@@H]3C)N(Cc3ccc(Cl)cc3Cl)C2=O)CC1 this time
**A:** 7.87

**Q:** Entry COC(=O)C1=C(C)N(Cc2ccc(C(F)(F)F)cc2)C(=NCc2ccccc2)NC1c1ccccc1C(F)(F)F (stereo not drawn) please
**A:** 1.95

**Q:** Next compound up: C=CCOC/C=C/C#CCN(CC=C)Cc1ccc(OC)cc1OC
**A:** -2.46

**Q:** Proceed to C=C1c2c(Cl)ccc(O)c2C(O)=C2C(=O)[C@]3(O)C(O)=C(C(N)=O)C(=O)[C@@H](N(C)C)[C@@H]3[C@@H](O)C12 (stereo partly drawn)
**A:** 87.2

**Q:** Repeat for the following compound: CCOC(=O)C1CSCCS(=O)(=O)N1Cc1ccc(Cl)cc1 (stereo not drawn)
**A:** 1.28

**Q:** Same question for CN1C(=O)c2cc(NS(C)(=O)=O)ccc2OC[C@@H]2O[C@@H](CC(=O)NCc3ccc(-c4ccccc4)cc3)CC[C@H]21 please.
**A:** 4.86
